target: cell surface binding site for EMAP II N-terminal peptides on human mononuclear phagocytes (MPs); ≈73 kDa MP surface polypeptide; experiment: radioligand binding on human MPs, 4 C, one-site model
No end group written: not given here. *: point of attachment. 125I = [125I]*
MEASUREMENT KIND: Kd (pM)
Write down the numeric answer in pM and omit the unit.

Q: What value of Kd has been recorded for this entry: RIGRIVTAKY(125I) [^125I-…]
Result: 190
